Recorded MIC values for a group of compounds are listed next.
system: Human respirovirus 3; assay: Antiviral activity against Parainfluenza 3 virus in african green monkey Vero cells assessed as reduction of virus-induced cytopathogenicity; type: functional
Measured Property: MIC

Structure Notation: CCCCCCNC(=S)Nc1ccc(-c2n[nH]c(=S)n2C)cc1
Study Target: Human respirovirus 3
Measured Property: MIC
Reported: > 16 µg/mL
//
Structure Notation: CCn1c(COc2ccc(NC(=S)Nc3ccccc3)cc2)n[nH]c1=S
Study Target: Human respirovirus 3
Measured Property: MIC
Reported: > 80 µg/mL
//
Structure Notation: C=CCNC(=S)Nc1ccc(-c2n[nH]c(=S)n2CC=C)cc1
Study Target: Human respirovirus 3
Measured Property: MIC
Reported: > 80 µg/mL
//
Structure Notation: C=CCn1c(COc2ccc(NC(=S)NC)cc2)n[nH]c1=S
Study Target: Human respirovirus 3
Measured Property: MIC
Reported: > 80 µg/mL
//
Structure Notation: S=C(Nc1ccccc1)Nc1ccc(OCc2n[nH]c(=S)n2-c2ccccc2)cc1
Study Target: Human respirovirus 3
Measured Property: MIC
Reported: > 16 µg/mL
//
Structure Notation: CCn1c(COc2ccc(N)cc2)n[nH]c1=S
Study Target: Human respirovirus 3
Measured Property: MIC
Reported: > 16 µg/mL
//
Structure Notation: C=CCNC(=S)Nc1ccc(OCc2n[nH]c(=S)n2CC)cc1
Study Target: Human respirovirus 3
Measured Property: MIC
Reported: > 80 µg/mL
//
Structure Notation: CNC(=S)Nc1ccc(-c2nnc(SCc3ccccc3)n2C)cc1
Study Target: Human respirovirus 3
Measured Property: MIC
Reported: > 16 µg/mL
//
Structure Notation: CNC(=S)Nc1ccc(OCc2n[nH]c(=S)n2-c2ccccc2)cc1
Study Target: Human respirovirus 3
Measured Property: MIC
Reported: > 80 µg/mL
//
Structure Notation: C=CCn1c(-c2ccc(NC(=S)NC)cc2)n[nH]c1=S
Study Target: Human respirovirus 3
Measured Property: MIC
Reported: > 80 µg/mL
//
Structure Notation: C=CCNC(=S)Nc1ccc(-c2n[nH]c(=S)n2-c2ccccc2)cc1
Study Target: Human respirovirus 3
Measured Property: MIC
Reported: > 400 µg/mL
//
Structure Notation: CNC(=S)Nc1ccc(-c2n[nH]c(=S)n2C)cc1
Study Target: Human respirovirus 3
Measured Property: MIC
Reported: > 80 µg/mL

Reference source for all entries: ChEMBL document CHEMBL1149790
